Listed here are molecules together with their documented MCC.
experiment: shrinkage of detached cell sheet to spherical cell aggregate (cytotoxicity test method of the invention), phase contrast microscopy; details: human, skin fibroblasts
Numbered stars: 1 amine (or outer) side, 2 acyl side, 3 side chain; on linkers, the order of the positions; unused ones are H or OH. Bridge positions count the residues as written; N and C are the ends. Square brackets hold non-standard residues; d marks the D form. Peptide text beside a SMILES is read from it. I, II: the chains in the order shown. Actinocin(9to1) = Cc1c2oc3c(C)ccc(C(=O)[*:1])c3nc-2c(C(=O)[*:2])c(N)c1=O; NMeV = CN[C@H](C(=O)O)C(C)C; Sar = CNCC(=O)O
All answers are understood in µg/mL, so give the number only.

C[C@@H]1C[C@@H]([C@H](O)CC2CC(=O)NC(=O)C2)C(=O)[C@@H](C)C1 [CH, cycloheximide]; 3

Prompt: Can you look up the measured MCC of Cc1c2oc3c(C)ccc(C(=O)N[C@@H]4C(=O)N[C@H](C(C)C)C(=O)N5CCC[C@H]5C(=O)N(C)CC(=O)N(C)[C@@H](C(C)C)C(=O)O[C@@H]4C)c3nc-2c(C(=O)N[C@@H]2C(=O)N[C@H](C(C)C)C(=O)N3CCC[C@H]3C(=O)N(C)CC(=O)N(C)[C@@H](C(C)C)C(=O)O[C@@H]2C)c(N)c1=O [AD, actinomycin D] (I: T[dV]P[Sar][NMeV] / II: T[dV]P[Sar][NMeV]; ester I:1-I:C, II:1-II:C; linker I:N-II:N via Actinocin(9to1)) for me?
Response: 0.03
